Could you please report measured EC50 for the items listed next?
- System: HIV-1 constructs containing wild-type IN
- assay overview: microbe, parasite or virus in culture
- Assay type: cell-based
- assay context: Human immunodeficiency virus 1, read-out: EC50 (nM); Table 9; WT, normal 5% serum
Give the value in nM but do not write nM after it.

So what does the record say about EC50 for Nc1c(C(=O)NCc2ccc(F)cc2F)c(=O)n(O)c2ncc(CCCCCO)cc12 ?
1.3

Request the reported EC50 associated with COC(=O)CNc1c(C(=O)NCc2ccc(F)cc2F)c(=O)n(O)c2ncccc12
3.8

Tell me the measured EC50 of Nc1c(C(=O)NCc2ccc(F)cc2F)c(=O)n(O)c2ncccc12 , please.
1.1

Could you tell me which EC50 is on file for CC(=O)OCCNc1c(C(=O)NCc2ccc(F)cc2F)c(=O)n(O)c2ncccc12 ?
4.5

Query (compound): Nc1c(C(=O)NCc2ccc(F)cc2F)c(=O)n(O)c2ncc(CCCCCCO)cc12 ; field requested: EC50
2.3

I have this compound here, COC(=O)CCc1cnc2c(c1)c(N)c(C(=O)NCc1ccc(F)cc1F)c(=O)n2O , and I need its recorded EC50.
0.7

Just for reference, patent US9676771B2 is where these values come from.
